Test system: INS-1E rat beta cells, no cytokines, CellTiter-Glo ATP, 48 h
Assay: cytokine-free beta-cell viability effect – INS-1E rat cells, ATP luminescence, cherry pick, counter-screen for beta-cell apoptosis protection project, dose response (AID 463229)

[
  {
    "compound": "O=C(N=Nc1c(O)n(Cc2ccccc2)c2ccccc12)c1cc2ccccc2cc1O",
    "AC50": "8.07 µM"
  },
  {
    "compound": "COc1c(CC=C(C)C)cc(C2CC(=O)c3c(O)cc(O)cc3O2)cc1CC=C(C)C (stereo not given)",
    "AC50": "4.05 µM"
  },
  {
    "compound": "CCN1CCN(C2=C(NS(=O)(=O)c3ccccc3)C(=O)c3ccccc3C2=O)CC1",
    "AC50": "20.3 µM"
  },
  {
    "compound": "O=C(CNC(=O)c1ccccc1O)N/N=C/c1cc(Br)ccc1OC(=O)/C=C/c1ccco1",
    "AC50": "10.7 µM"
  },
  {
    "compound": "O=c1c2c(nc3c(-c4ccc(Cl)cc4)c[nH]n13)CCCC2",
    "AC50": "7.43 µM"
  },
  {
    "compound": "O=C(N/N=C\\c1c(O)ccc2ccccc12)c1ccc(Cn2cccn2)o1",
    "AC50": "4.39 µM"
  },
  {
    "compound": "CC1=NNC(=O)/C1=C\\c1cn(-c2ccccc2)nc1-c1ccccc1",
    "AC50": "7.57 µM"
  },
  {
    "compound": "CCCCC(=O)NC(c1ccc(N(C)C)cc1)c1ccc2cccnc2c1O (stereo not given)",
    "AC50": "1.6 µM"
  },
  {
    "compound": "O=C(NC(c1ccc(Cl)cc1)c1cc(Cl)c2cccnc2c1O)c1cccnc1 (stereo not given)",
    "AC50": "6.6 µM"
  },
  {
    "compound": "CC(C)(C)Nc1nc(-c2ccccn2)nc2ccccc12",
    "AC50": "6.87 µM"
  }
]

====

Test system: INS-1E rat beta cells, no cytokines, CellTiter-Glo ATP, 48 h
Experiment: cytokine-free beta-cell viability effect – INS-1E rat cells, ATP luminescence, cherry pick, counter-screen for beta-cell apoptosis protection project, dose response (AID 463229)
Active and inactive are the calls of the source.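 The calls were made as follows: active = compounds raising the signal whose fitted half-maximal concentration is at or below their top tested dose (cut at about 25 µM in these data); inconclusive = flat fit at 30 to 70% activity, or a poor fit; inactive = the rest.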
Classes used: active, inactive

[
  {
    "compound": "Cc1cc(C)n(-c2nc(NCCO)c3c4c(sc3n2)CCCC4)n1",
    "tgt": "INS-1E rat beta cells, no cytokines, CellTiter-Glo ATP, 48 h",
    "assigned category": "inactive"
  },
  {
    "compound": "COc1ccc(-c2n(Cc3ccccc3)c3ccccc3[n+]2Cc2ccccc2)cc1",
    "tgt": "INS-1E rat beta cells, no cytokines, CellTiter-Glo ATP, 48 h",
    "assigned category": "active"
  },
  {
    "compound": "Cc1nc2ccccc2n1/N=C/c1ccc([N+](=O)[O-])s1",
    "tgt": "INS-1E rat beta cells, no cytokines, CellTiter-Glo ATP, 48 h",
    "assigned category": "active"
  },
  {
    "compound": "CC(C)CN(C(=O)COC(=O)C12CC3CC(CC(Cl)(C3)C1)C2)c1c(N)n(Cc2ccccc2)c(=O)[nH]c1=O",
    "tgt": "INS-1E rat beta cells, no cytokines, CellTiter-Glo ATP, 48 h",
    "assigned category": "active"
  },
  {
    "compound": "COc1ccc(NS(=O)(=O)c2cccc(NC(=O)c3ccc(S(=O)(=O)N4CCCCCC4)cc3)c2)cc1",
    "tgt": "INS-1E rat beta cells, no cytokines, CellTiter-Glo ATP, 48 h",
    "assigned category": "active"
  },
  {
    "compound": "COc1ccc(C)cc1Nc1n[n+](-c2ccccc2)c(-c2ccc(OC)c(OC)c2OC)s1",
    "tgt": "INS-1E rat beta cells, no cytokines, CellTiter-Glo ATP, 48 h",
    "assigned category": "active"
  },
  {
    "compound": "Oc1ccc(/C=N/Nc2ncc(Br)cn2)c(O)c1",
    "tgt": "INS-1E rat beta cells, no cytokines, CellTiter-Glo ATP, 48 h",
    "assigned category": "active"
  },
  {
    "compound": "C/C(=N\\NC(=O)c1nnn(-c2nonc2N)c1CN1CCc2ccccc21)c1ccccc1O",
    "tgt": "INS-1E rat beta cells, no cytokines, CellTiter-Glo ATP, 48 h",
    "assigned category": "active"
  },
  {
    "compound": "Cc1[nH]n(-c2ccccc2)c(=O)c1N=Nc1c(O)cc(S(=O)(=O)N(C)C)c2ccccc12",
    "tgt": "INS-1E rat beta cells, no cytokines, CellTiter-Glo ATP, 48 h",
    "assigned category": "active"
  },
  {
    "compound": "Cc1ccc(-c2csc(N3CCC(NS(=O)(=O)c4ccc5c(c4)OCCO5)CC3)n2)cc1",
    "tgt": "INS-1E rat beta cells, no cytokines, CellTiter-Glo ATP, 48 h",
    "assigned category": "active"
  },
  {
    "compound": "O=C(c1cccnc1)N(c1cc2sc(=O)oc2c2ccccc12)S(=O)(=O)c1ccccc1",
    "tgt": "INS-1E rat beta cells, no cytokines, CellTiter-Glo ATP, 48 h",
    "assigned category": "active"
  },
  {
    "compound": "Cc1ccc(NC(=O)c2c(C(F)(F)F)nn(C)c2SCc2cccc(C(F)(F)F)c2)cc1C",
    "tgt": "INS-1E rat beta cells, no cytokines, CellTiter-Glo ATP, 48 h",
    "assigned category": "active"
  },
  {
    "compound": "COC(=O)c1cccc(NC(=O)Nc2ccc(Cl)c(Cl)c2)c1",
    "tgt": "INS-1E rat beta cells, no cytokines, CellTiter-Glo ATP, 48 h",
    "assigned category": "active"
  },
  {
    "compound": "Cc1ccc2cc(C3C(C#N)=C(N)Oc4c3ccc3cccnc43)c(=O)[nH]c2c1 (stereo not given)",
    "tgt": "INS-1E rat beta cells, no cytokines, CellTiter-Glo ATP, 48 h",
    "assigned category": "active"
  },
  {
    "compound": "Clc1ccc(C[n+]2c(-c3ccccc3)cc(-c3ccccc3)cc2-c2ccccc2)cc1",
    "tgt": "INS-1E rat beta cells, no cytokines, CellTiter-Glo ATP, 48 h",
    "assigned category": "active"
  },
  {
    "compound": "CCOC(=O)c1c(C)oc2c1C(=O)c1ccccc1C2=O",
    "tgt": "INS-1E rat beta cells, no cytokines, CellTiter-Glo ATP, 48 h",
    "assigned category": "active"
  },
  {
    "compound": "CCC(CNc1cc(OC)cc2cccnc12)NC1CCCCC1 (stereo not given)",
    "tgt": "INS-1E rat beta cells, no cytokines, CellTiter-Glo ATP, 48 h",
    "assigned category": "inactive"
  },
  {
    "compound": "Oc1ccc(Br)cc1CNc1cccc2cccnc12",
    "tgt": "INS-1E rat beta cells, no cytokines, CellTiter-Glo ATP, 48 h",
    "assigned category": "active"
  },
  {
    "compound": "COc1cc(/C=C2\\CC/C(=C\\c3cc(OC)c(O)c(OC)c3)C2=O)cc(OC)c1O",
    "tgt": "INS-1E rat beta cells, no cytokines, CellTiter-Glo ATP, 48 h",
    "assigned category": "active"
  },
  {
    "compound": "Cc1ccc(NS(=O)(=O)c2cc([N+](=O)[O-])ccc2N/N=C/c2sc(N3CCOCC3)nc2-c2ccccc2)c(C)c1",
    "tgt": "INS-1E rat beta cells, no cytokines, CellTiter-Glo ATP, 48 h",
    "assigned category": "active"
  }
]
